Taken from ChEMBL document CHEMBL4665777.

As shown below, each of these molecules has a reported pIC50 value.
System: U-251
Assay: Antiproliferative activities against human U-251 cells by SRB assay
Type: functional, cell-based
Scale: negative log10 of molar concentration, which is what pIC50 denotes.

Check out these entries, answers already filled in.
CO[C@@]1(C)N(C[C@@H](O)c2ccccc2)C(=O)c2cc3c4ccccc4n(C)c3c(=O)n21; 4.44
CC(=O)NC[C@H](OC(=O)c1cc2c3ccccc3n(C)c2c(=O)[nH]1)c1ccccc1; 4.82
CO[C@@]1(C)N(/C=C/c2ccccc2)C(=O)c2cc3c([nH]c4ccccc43)c(=O)n21; 4.44
CO[C@@]1(C)N(CCc2ccccc2)C(=O)c2cc3c4ccccc4n(C)c3c(=O)n21; 4.57
CO[C@@]1(C)N(C[C@H](O)c2ccccc2)C(=O)c2cc3c4ccccc4n(C)c3c(=O)n21; 4.72

Prompt: # return recorded pIC50 for input CO[C@@]1(C)N(/C=C/c2ccccc2)C(=O)c2cc3c4ccccc4n(C)c3c(=O)n21
Response: 4.77

Prompt: Answer with reported pIC50 of Cn1c2ccccc2c2cc(C(=O)NCCc3ccccc3)[nH]c(=O)c21
Response: 4.89

Prompt: // Input: COc1cc(/C=N/OCCc2ccccc2)nc(-c2ccccn2)c1 . Output its pIC50 only.
Response: 5.70

Prompt: Return reported pIC50. Input molecule: COc1cccc2c1C(=O)c1c(O)c3c(c(O)c1C2=O)C[C@@](O)(C(=O)CO)C[C@@H]3O[C@H]1C[C@H](N)[C@H](O)[C@H](C)O1
Response: 5.41

Prompt: Fill in reported pIC50 for this entry: CC(=O)c1nc(C(=O)NCCc2ccccc2)cc2c1[nH]c1ccccc12
Response: 4.92

Prompt: Given the molecule CC(=O)c1nc(C(=O)NCCc2ccccc2)cc2c3ccccc3n(C)c12 , write its reported pIC50.
Response: 4.92

Prompt: Could you please provide reported pIC50 for CO[C@@]1(C)N(/C=C/c2ccccc2)C(=O)C2=C[C@@]3(C(=O)N(C)c4ccccc43)C(=O)N21 ? Thanks!
Response: 5.24

Prompt: Give me measured pIC50, please, for this molecule: CO[C@@]1(C)N(/C=C\c2ccccc2)C(=O)c2cc3c4ccccc4n(C)c3c(=O)n21
Response: 4.92
